System name: UniProtKB P08913
Sequence (P08913 whole entry): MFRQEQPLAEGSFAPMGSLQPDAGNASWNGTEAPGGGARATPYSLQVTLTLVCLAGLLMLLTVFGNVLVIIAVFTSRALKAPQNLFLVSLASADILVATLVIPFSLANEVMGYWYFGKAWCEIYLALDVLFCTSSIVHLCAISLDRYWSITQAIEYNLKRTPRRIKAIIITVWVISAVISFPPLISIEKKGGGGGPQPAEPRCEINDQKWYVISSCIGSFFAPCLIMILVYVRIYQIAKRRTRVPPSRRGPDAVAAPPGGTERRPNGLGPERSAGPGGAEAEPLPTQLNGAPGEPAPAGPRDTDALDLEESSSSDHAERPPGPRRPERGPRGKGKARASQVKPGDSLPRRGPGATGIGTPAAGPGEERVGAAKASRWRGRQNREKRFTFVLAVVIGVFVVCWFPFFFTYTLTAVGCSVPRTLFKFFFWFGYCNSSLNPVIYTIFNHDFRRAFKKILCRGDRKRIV
Test name: 3H‐rauwolscine whole cell binding in CHO‐α2A cells
Design: expressed in transfected cells; host or cells: CHO-K1 with CRE-SPAP reporter
Condition context: Log KD (apparent), CHO‐α2A
Measured attribute: Kd (µM)
Your answer is read as µM, so omit the unit and give the number.

Data request: Requested read-out: Kd. Entry: CC(Cc1ccc(O)cc1)NCC(O)c1cc(O)cc(O)c1 (stereo not shown)
Data returned: 347

---

System name: UniProt:P18825
Sequence (P18825 1-462): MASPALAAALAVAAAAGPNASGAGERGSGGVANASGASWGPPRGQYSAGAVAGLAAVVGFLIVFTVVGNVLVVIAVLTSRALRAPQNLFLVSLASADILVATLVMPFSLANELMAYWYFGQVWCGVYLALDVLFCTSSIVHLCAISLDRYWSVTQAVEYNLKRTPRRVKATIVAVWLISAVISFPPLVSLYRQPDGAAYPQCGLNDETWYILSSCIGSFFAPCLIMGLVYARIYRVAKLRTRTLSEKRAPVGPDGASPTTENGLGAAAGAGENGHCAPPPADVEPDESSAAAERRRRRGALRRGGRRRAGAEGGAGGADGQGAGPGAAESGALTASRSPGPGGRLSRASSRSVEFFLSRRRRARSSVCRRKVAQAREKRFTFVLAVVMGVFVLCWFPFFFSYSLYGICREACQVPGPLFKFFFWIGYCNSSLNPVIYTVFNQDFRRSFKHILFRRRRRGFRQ
Test name: 3H‐rauwolscine whole cell binding in CHO‐α2C cells
Design: expressed in transfected cells; host or cells: CHO-K1 with CRE-SPAP reporter
Listing: pKd of selected compounds
Quick note: pKd values are minus log10 of concentrations in mol/L.

Worked examples follow.
Cc1cc(C(C)(C)C)cc(C)c1CC1=NCCN1 | 6.97
CN[C@@H](C)[C@H](O)c1ccccc1 | 4.40
Cc1cccc(C)c1N=C1NCCCS1 | 5.22
C=CCc1ccccc1OC(C)C1=NCCN1 (centres unmarked) | 6.67

Next compound, pKd to be filled in.
Data request: Consider the compound CNCC(O)c1ccc(O)cc1 (centres unmarked) [Synephrine] and give its measured pKd.
Data returned: 3.92
